molecular target: ABCB1 (Homo sapiens, UniProt P08183); assay: ATPase stimulation in ABCB1-overexpressing membranes; also [3H]-paclitaxel accumulation/efflux inhibition in KB-C2 cells
Sequence (P08183 whole entry): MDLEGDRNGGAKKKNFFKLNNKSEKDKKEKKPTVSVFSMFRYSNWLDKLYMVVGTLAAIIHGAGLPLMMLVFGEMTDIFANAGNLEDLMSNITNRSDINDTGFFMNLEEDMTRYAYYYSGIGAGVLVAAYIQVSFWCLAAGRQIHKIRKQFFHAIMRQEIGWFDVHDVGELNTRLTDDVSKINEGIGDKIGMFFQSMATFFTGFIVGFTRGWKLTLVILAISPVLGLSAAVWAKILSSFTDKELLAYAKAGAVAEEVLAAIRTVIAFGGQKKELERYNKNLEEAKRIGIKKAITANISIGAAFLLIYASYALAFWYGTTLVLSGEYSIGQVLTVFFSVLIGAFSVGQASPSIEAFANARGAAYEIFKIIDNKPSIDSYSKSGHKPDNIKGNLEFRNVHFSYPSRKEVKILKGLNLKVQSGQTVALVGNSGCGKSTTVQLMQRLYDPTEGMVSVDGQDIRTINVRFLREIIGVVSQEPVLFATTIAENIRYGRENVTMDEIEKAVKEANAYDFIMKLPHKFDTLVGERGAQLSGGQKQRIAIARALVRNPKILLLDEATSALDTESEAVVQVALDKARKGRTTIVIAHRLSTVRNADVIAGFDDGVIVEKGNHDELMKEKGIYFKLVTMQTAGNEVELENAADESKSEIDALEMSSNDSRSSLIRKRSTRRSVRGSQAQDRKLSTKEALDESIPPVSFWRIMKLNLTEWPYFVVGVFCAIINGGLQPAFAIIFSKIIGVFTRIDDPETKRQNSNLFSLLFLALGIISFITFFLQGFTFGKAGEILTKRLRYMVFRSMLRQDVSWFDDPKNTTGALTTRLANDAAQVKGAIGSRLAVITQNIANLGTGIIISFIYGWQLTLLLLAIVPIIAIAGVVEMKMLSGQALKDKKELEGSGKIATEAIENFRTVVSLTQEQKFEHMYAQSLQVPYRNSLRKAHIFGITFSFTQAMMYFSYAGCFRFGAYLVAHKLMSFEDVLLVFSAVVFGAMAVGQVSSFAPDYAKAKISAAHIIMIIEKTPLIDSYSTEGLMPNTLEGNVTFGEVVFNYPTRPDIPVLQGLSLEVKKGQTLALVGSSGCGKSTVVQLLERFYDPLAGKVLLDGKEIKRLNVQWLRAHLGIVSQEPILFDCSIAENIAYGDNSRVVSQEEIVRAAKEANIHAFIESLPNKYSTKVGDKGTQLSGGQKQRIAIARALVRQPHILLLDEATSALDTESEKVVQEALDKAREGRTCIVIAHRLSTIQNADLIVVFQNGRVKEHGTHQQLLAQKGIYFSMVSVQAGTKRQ

Smiles Input	EC50 [nM]
CNC(=O)c1ccccc1Nc1cc(Nc2ccc(N3CCOCC3)cc2OC)ncc1C(F)(F)F	1720

====

Target: ABCG2 (Homo sapiens, UniProt Q9UNQ0)
Sequence (Q9UNQ0 1-655): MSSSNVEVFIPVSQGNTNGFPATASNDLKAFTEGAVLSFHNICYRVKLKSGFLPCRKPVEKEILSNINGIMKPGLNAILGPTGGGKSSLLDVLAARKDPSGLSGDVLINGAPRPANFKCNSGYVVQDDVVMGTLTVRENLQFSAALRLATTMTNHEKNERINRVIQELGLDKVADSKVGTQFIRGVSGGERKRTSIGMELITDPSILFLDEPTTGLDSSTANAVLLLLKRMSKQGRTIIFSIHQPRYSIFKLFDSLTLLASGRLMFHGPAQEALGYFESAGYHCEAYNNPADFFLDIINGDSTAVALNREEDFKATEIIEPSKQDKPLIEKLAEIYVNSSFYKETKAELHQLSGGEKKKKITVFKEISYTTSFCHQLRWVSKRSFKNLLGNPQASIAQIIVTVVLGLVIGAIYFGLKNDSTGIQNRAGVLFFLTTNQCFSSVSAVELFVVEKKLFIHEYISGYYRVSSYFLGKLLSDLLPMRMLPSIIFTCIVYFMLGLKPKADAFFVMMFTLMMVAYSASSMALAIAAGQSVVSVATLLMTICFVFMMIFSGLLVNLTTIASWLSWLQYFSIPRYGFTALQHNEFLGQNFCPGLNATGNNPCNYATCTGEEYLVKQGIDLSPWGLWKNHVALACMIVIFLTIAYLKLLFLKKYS
Assay: biochemical
pEC50: −log10 of the molar value.

Smiles Input	Test Target	pEC50
CNC(=O)c1ccccc1Nc1cc(Nc2ccc(N3CCOCC3)cc2OC)ncc1C(F)(F)F	ABCG2 (Homo sapiens, UniProt Q9UNQ0)	5.02

# credit: paper PMC6218957
